Recorded inhibition values for a group of molecules are listed next.
- measured.target: Ribosomal protein S6 kinase alpha-6 (Homo sapiens) (UniProt Q9UK32);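 note: reported value is the mean inhibition of RSK4, from the GSK PKIS kinase inhibitor screen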
- Sequence (Q9UK32 whole entry): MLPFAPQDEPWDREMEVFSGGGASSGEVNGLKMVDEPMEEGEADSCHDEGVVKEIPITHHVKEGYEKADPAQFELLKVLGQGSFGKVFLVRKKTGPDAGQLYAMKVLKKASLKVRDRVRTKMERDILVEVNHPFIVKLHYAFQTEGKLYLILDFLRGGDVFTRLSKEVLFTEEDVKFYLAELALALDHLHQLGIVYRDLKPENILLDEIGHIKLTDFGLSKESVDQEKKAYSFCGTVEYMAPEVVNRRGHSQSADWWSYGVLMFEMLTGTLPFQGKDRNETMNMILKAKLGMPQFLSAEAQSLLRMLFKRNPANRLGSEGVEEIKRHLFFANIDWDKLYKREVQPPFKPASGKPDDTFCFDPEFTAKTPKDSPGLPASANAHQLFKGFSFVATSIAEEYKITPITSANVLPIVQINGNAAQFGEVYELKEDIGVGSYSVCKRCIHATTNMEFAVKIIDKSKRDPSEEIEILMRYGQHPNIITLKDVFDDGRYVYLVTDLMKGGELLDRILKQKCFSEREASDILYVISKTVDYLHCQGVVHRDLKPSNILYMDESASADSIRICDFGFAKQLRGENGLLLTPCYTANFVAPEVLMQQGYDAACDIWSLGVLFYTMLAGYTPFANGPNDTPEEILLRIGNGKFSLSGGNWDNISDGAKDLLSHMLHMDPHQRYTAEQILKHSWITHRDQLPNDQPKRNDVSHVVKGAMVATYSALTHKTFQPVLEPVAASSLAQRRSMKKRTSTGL
- condition.context: at 0.1 µM

For orientation, consider the following solved cases.
# input Look up and state reported inhibition for `CCc1cccc(CC)c1/C=C/c1cncc(C(=O)NC)c1`
# output 0.65%

# input Look up and state reported inhibition for `COc1cc2ncn(-c3cc(OCc4ccccc4C(F)(F)F)c(C(C)=O)s3)c2cc1OC`
# output 1.64%

# input Look up and state reported inhibition for `COc1cc(N2CCN(C(C)C)CC2)ccc1Nc1nc(Nc2ccc(F)cc2C(=O)NC[C@@H](O)CO)c2cc[nH]c2n1`
# output 2.51%

# input Look up and state reported inhibition for `NS(=O)(=O)c1ccc(Nc2cc(-c3ccc(O)c(F)c3)n[nH]2)cc1`
# output 13.4%

# input Look up and state reported inhibition for `Fc1ccc(-c2ncn(C3CCNCC3)c2-c2ccnc(Oc3ccc(F)c(F)c3)n2)cc1`
# output 0.29%

# input Look up and state reported inhibition for `NC(=O)c1cc(-c2ccc(F)cc2)cc(-c2ccncc2)c1N`
# output 0.55%

# input Look up and state reported inhibition for `Fc1ccc(-c2ncn(CCCN3CCOCC3)c2-c2ccncc2)cc1`
# output 0.43%

# input Look up and state reported inhibition for `COc1ccc2ncn(-c3cc(O[C@H](C)c4ccccc4Cl)c(C(N)=O)s3)c2c1`
# output 0.03%

Continuing:
# input Look up and state reported inhibition for `CN(C)CCOc1ccc(-c2cc(-c3ccc4c(c3)CCC4=NO)c(-c3ccncc3)o2)cc1`
# output -0.45%

# input Look up and state reported inhibition for `NC(=O)c1ccc(Oc2nccc(-c3c(-c4ccc(F)cc4)ncn3C3CCNCC3)n2)cc1`
# output 1.77%
